Each recorded value in this set is attributed to patent US20260297081A1.

Test system: T47D palbo-resistant cells
assay.method.text: CellTiter-Lumi cell viability assay, T47D palbo-resistant cells, 6 days (FIG. 4)
Type: cell-based
test.settings: Homo sapiens, 144 h
pIC50: −log10 of the molar value.
Known pIC50 of a selection of molecules
endpoint: pIC50

>>> value_measured("CNc1ccc(C(=O)Nc2ccc(N(C)C)nn2)c(NCCCCCCCNC(=O)CN2CCN(c3ccc(Nc4ncc5c(C)c(C(C)=O)c(=O)n(C6CCCC6)c5n4)nc3)CC2)n1")
7.48
>>> value_measured("CNc1ccc(C(=O)Nc2ccc(N(C)C)nn2)c(NC2CC3(CC(NC(=O)CN4CCN(c5ccc(Nc6ncc7c(C)c(C(C)=O)c(=O)n(C8CCCC8)c7n6)nc5)CC4)C3)C2)n1 (stereo not drawn)")
7.08

====

study.target: CDK4 (Homo sapiens, UniProt P11802+Q16531)
Sequence (P11802 whole entry): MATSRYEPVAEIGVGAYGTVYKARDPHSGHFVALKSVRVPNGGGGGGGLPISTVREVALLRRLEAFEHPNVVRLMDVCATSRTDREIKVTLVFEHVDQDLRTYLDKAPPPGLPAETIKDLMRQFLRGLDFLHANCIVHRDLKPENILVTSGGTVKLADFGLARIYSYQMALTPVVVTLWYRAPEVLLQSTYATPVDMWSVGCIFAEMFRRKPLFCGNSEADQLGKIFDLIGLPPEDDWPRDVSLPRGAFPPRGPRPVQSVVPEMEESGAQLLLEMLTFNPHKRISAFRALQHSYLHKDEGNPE
Sequence (P24385 whole entry partner): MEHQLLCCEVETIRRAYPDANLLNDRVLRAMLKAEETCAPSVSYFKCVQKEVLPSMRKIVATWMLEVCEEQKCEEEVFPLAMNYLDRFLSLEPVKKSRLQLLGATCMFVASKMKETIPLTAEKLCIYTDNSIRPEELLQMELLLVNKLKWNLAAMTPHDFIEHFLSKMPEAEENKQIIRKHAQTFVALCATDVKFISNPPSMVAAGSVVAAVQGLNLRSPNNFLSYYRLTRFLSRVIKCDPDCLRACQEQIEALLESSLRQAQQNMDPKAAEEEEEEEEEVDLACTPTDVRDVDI
Sequence (Q16531 2-1140 limits assumed): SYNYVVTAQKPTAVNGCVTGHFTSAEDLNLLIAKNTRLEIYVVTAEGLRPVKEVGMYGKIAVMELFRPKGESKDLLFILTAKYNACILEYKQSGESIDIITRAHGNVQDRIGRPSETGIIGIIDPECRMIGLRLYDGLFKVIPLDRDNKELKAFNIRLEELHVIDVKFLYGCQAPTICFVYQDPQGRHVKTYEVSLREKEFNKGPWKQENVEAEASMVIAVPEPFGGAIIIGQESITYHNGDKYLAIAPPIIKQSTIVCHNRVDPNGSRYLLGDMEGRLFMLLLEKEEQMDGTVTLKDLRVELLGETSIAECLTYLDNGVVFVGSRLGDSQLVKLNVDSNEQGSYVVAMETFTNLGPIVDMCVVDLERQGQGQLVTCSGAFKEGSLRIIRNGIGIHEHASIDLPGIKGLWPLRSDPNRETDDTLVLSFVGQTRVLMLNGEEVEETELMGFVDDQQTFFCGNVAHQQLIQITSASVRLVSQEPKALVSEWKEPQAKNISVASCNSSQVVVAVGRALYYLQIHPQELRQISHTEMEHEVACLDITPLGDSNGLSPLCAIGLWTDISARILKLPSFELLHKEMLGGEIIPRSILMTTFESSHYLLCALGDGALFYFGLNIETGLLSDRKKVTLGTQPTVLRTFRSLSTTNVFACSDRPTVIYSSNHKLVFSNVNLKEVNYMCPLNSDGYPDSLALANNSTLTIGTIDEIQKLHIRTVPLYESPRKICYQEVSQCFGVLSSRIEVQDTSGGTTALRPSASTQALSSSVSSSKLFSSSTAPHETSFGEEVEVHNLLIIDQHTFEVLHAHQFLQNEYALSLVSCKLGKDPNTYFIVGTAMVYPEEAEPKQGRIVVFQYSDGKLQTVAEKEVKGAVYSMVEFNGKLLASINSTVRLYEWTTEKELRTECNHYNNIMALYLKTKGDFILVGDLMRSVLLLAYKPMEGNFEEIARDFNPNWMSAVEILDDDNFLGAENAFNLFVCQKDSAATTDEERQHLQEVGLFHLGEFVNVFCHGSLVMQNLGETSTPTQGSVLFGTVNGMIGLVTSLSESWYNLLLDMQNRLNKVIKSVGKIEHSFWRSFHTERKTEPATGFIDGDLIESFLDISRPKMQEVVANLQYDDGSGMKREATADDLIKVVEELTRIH
assay.method.text: HiBiT detection of HiBiT-tagged CDK4 protein level in MCF7 cells, 16 hours (Table 8)
Format: cell-based
Set-up: expressed in transfected cells; host or cells: MCF7
test.settings: 10 nM, MCF7 cells stably expressing HiBiT tagged target proteins, read-out: % CDK4 Relative Level (10 nM)
endpoint: activity at 0.01 µM

>>> value_measured("CNc1ccc(C(=O)Nc2ccc(N(C)C)nn2)c(NCCOCCOCCC(=O)N2CCN(c3ccc(Nc4ncc5cc(C(=O)N(C)C)n(C6CCCC6)c5n4)nc3)CC2)n1")
"> 85%"
>>> value_measured("CC(=O)c1c(C)c2cnc(Nc3ccc(CN4CCN(CC(=O)NC5CC6(C5)CC(Nc5nc(C(C)C)ccc5C(=O)Nc5ccc(N(C)C)nn5)C6)CC4)cn3)nc2n(C2CCCC2)c1=O (stereo not shown)")
"55 to 85%"
>>> value_measured("[2H]C([2H])([2H])Nc1ccc(C(=O)Nc2ccc(N(C)C)nn2)c(NC2CCN(CC(=O)N3CCN(Cc4ccc(Nc5ncc6c(C)c(C(C)=O)c(=O)n(C7CCCC7)c6n5)nc4)CC3)CC2)n1")
"> 85%"
>>> value_measured("CC(=O)c1c(C)c2cnc(Nc3ccc(N4CCN(C5CCN(C(=O)N6CCC(Nc7nc(NC(C)C)ccc7C(=O)Nc7ccc(N(C)C)nn7)CC6)C5)CC4)cn3)nc2n(C2CCCC2)c1=O (stereo not shown)")
"≤ 55%"
>>> value_measured("CNc1ccc(C(=O)Nc2ccc(N(C)C)nn2)c(NCCCCC(=O)N2CCN(Cc3ccc(Nc4ncc(F)c(-c5cc(F)c6nc(C)n(C(C)C)c6c5)n4)nc3)CC2)n1")
"55 to 85%"
>>> value_measured("CNc1ccc(C(=O)Nc2ccc(N(C)C)nn2)c(NCCCCCCC(=O)NC2CCC(Nc3ncc4ccc(=O)n(C5CCCC5)c4n3)CC2)n1 (stereo not shown)")
"> 85%"
>>> value_measured("CNc1ccc(C(=O)Nc2ccc(N(C)C)nn2)c(NCCOCCOCCC(=O)N2CCN(c3ccc(Nc4ncc5cc6n(c5n4)C4(CCCCC4)CNC6=O)nc3)CC2)n1")
"> 85%"
>>> value_measured("CC(=O)c1c(C)c2cnc(Nc3ccc(CN4CCN(CC(=O)N5CCC6(CCC(Nc7nc(C8CC8)ccc7C(=O)Nc7ccc(N(C)C)nn7)C6)C5)CC4)cn3)nc2n(C2CCCC2)c1=O (stereo not shown)")
"55 to 85%"
>>> value_measured("CNc1ccc(C(=O)Nc2ccc(N(C)C)nn2)c(NCCCCNC(=O)CN2CCN(c3ccc(Nc4ncc5cc6n(c5n4)C4(CCCCC4)CNC6=O)nc3)CC2)n1")
"55 to 85%"
>>> value_measured("CNc1ccc(C(=O)Nc2ccc(N(C)C)nn2)c(NCCNC(=O)CN2CCN(c3ccc(Nc4ncc5cc(C(=O)N(C)C)n(C6CCCC6)c5n4)nc3)CC2)n1")
"55 to 85%"
>>> value_measured("CC(=O)c1c(C)c2cnc(Nc3ccc(N4CCC5(CCN(CC(=O)N6CC7(CC(Nc8nc(NC(C)C)ccc8C(=O)Nc8cn9c(n8)CCC9)C7)C6)C5)C4)cn3)nc2n(C2CCCC2)c1=O (stereo not shown)")
"> 85%"
>>> value_measured("CNc1ccc(C(=O)Nc2ccc(N(C)C)nn2)c(NCCCCC(=O)NC2CCC(Nc3ncc4ccc(=O)n(C5CCCC5)c4n3)CC2)n1 (stereo not shown)")
"> 85%"
>>> value_measured("CNc1ccc(C(=O)Nc2ccc(N(C)C)nn2)c(NCCCC(=O)NC2CCC(Nc3ncc4ccc(=O)n(C5CCCC5)c4n3)CC2)n1 (stereo not shown)")
"> 85%"
>>> value_measured("CNc1ccc(C(=O)Nc2ccc(N(C)C)nn2)c(NCCCCCCNC(=O)CN2CCN(c3ccc(Nc4ncc5cc6n(c5n4)C4(CCCCC4)CNC6=O)nc3)CC2)n1")
"> 85%"
>>> value_measured("CC(=O)c1c(C)c2cnc(Nc3ccc(CN4CCN(C(C)C(=O)N5CCC6(CCC(Nc7nc(NC(C)C)ccc7C(=O)Nc7ccc(N(C)C)nn7)C6)C5)CC4)cn3)nc2n(C2CCCC2)c1=O (stereo not shown)")
"> 85%"
>>> value_measured("CNc1ccc(C(=O)Nc2ccc(N(C)C)nn2)c(NCCCCC(=O)NC2CCC3(CC2)CC(Nc2ncc4ccc(=O)n(C5CCCC5)c4n2)C3)n1 (stereo not shown)")
"> 85%"
>>> value_measured("CNc1ccc(C(=O)Nc2ccc(N(C)C)nn2)c(NCCOCCNC(=O)CN2CCN(c3ccc(Nc4ncc5cc(C(=O)N(C)C)n(C6CCCC6)c5n4)nc3)CC2)n1")
"> 85%"
>>> value_measured("CNc1ccc(C(=O)Nc2ccc(N(C)C)nn2)c(NCCCCCC(=O)NC2CCC3(CC2)CC(Nc2ncc4ccc(=O)n(C5CCCC5)c4n2)C3)n1 (stereo not shown)")
"> 85%"
>>> value_measured("CC(=O)c1c(C)c2cnc(Nc3ccc(N4CCN(CC(=O)N(C)CC56CC(Nc7nc(NC(C)C)ccc7C(=O)Nc7ccc(N(C)C)nn7)(C5)C6)CC4)cn3)nc2n(C2CCCC2)c1=O")
"> 85%"
>>> value_measured("CC(=O)c1c(C)c2cnc(Nc3ccc(N4CCN(C5CCN(C(=O)[C@H]6CC[C@H](Nc7nc(C(C)C)ccc7C(=O)Nc7ccc(N(C)C)nn7)CC6)C5)CC4)cn3)nc2n(C2CCCC2)c1=O (stereo partly shown)")
"> 85%"
>>> value_measured("CCc1ccc(C(=O)Nc2ccc(N(C)C)nn2)c(NC2CC3(CC(NC(=O)CN4CCN(Cc5ccc(Nc6ncc7c(C)c(C(C)=O)c(=O)n(C8CCCC8)c7n6)nc5)CC4)C3)C2)c1 (stereo not shown)")
"55 to 85%"
>>> value_measured("CC(=O)c1c(C)c2cnc(Nc3ccc(CN4CCN(CC(=O)N5CC6(CCC(Nc7nc(NC(C)C)ccc7C(=O)Nc7ccc(N(C)C)nn7)C6)C5)CC4)cn3)nc2n(C2CCCC2)c1=O (stereo not shown)")
"> 85%"
